tested on: Escherichia coli; test: Antibacterial activity against Escherichia coli TG-1 transfected with Klebsiella pneumoniae full-length NDM-1 beta lactamase gene incubated in presence of meropenem; type: functional
Quick reference: MIC of the listed items.
// units = µg/mL; emit number, no label

Example entries begin here.
{"structure_as_smiles": "O=c1c2ccccc2[se]n1CCNS(=O)(=O)c1ccc(Cl)c([N+](=O)[O-])c1", "MIC [µg/mL]": 16}
{"structure_as_smiles": "O=c1c2ccccc2[se]n1-c1ccc(-c2ccccc2)cc1", "MIC [µg/mL]": 64}
{"structure_as_smiles": "CCc1ccc(-n2[se]c3ccccc3c2=O)cc1", "MIC [µg/mL]": 64}
{"structure_as_smiles": "CC(C)(C)OC(=O)NCCCn1[se]c2ccccc2c1=O", "MIC [µg/mL]": 16}
{"structure_as_smiles": "CC(C)(C)OC(=O)N1CCC(n2[se]c3ccccc3c2=O)CC1", "MIC [µg/mL]": 16}

The compound listed as `CC(C)(C)OC(=O)NCCCCCn1[se]c2ccccc2c1=O` has a reported MIC of 16

The compound listed as `CC(C)(C)OC(=O)NCCCCn1[se]c2ccccc2c1=O` has a reported MIC of 32

The compound listed as `COC(=O)c1ccc(-n2[se]c3ccccc3c2=O)cc1C` has a reported MIC of 16

The compound listed as `CCS(=O)(=O)NCCn1[se]c2ccccc2c1=O` has a reported MIC of 16

###

tested on: Escherichia coli; experiment: Antibacterial activity against Escherichia coli TG-1 transfected with Klebsiella pneumoniae full-length NDM-1 beta lactamase gene incubated in presence of meropenem; format: functional
Quick reference: MIC of the listed items.
// units = µg/mL; emit number, no label

{"structure_as_smiles": "CC(C)(C)OC(=O)NCCCCCCn1[se]c2ccccc2c1=O", "u": "µg/mL", "MIC": 4}

The molecule listed as `CC(C)(C)C(=O)NCCn1[se]c2ccccc2c1=O` has a reported MIC of 64

The molecule listed as `CC(C)(C)OC(=O)NCCn1[se]c2ccccc2c1=O` has a reported MIC of 16

The molecule listed as `CC(C)(C)C(=O)NCCCn1[se]c2ccccc2c1=O` has a reported MIC of 16

###

system: Escherichia coli; assay: Synergistic antibacterial activity against Escherichia coli TG-1 transfected with Klebsiella pneumoniae full-length NDM-1 beta lactamase gene assessed as fractional inhibitory concentration index in presence of meropenem; type: functional
Quick reference: fractional inhibitory concentration index (FICI) of the listed items.
// response body must contain only the number

Example entries begin here.
{"structure_as_smiles": "COC(=O)c1ccc(-n2[se]c3ccccc3c2=O)cc1C", "data_value": 0.5}
{"structure_as_smiles": "CC(C)(C)OC(=O)NCCCCCn1[se]c2ccccc2c1=O", "data_value": 0.5}
{"structure_as_smiles": "CC(C)(C)C(=O)NCCn1[se]c2ccccc2c1=O", "data_value": 2}

Tested on Escherichia coli: `CC(C)(C)OC(=O)N1CCC(n2[se]c3ccccc3c2=O)CC1` . Observed fractional inhibitory concentration index (FICI): 0.5

Tested on Escherichia coli: `COc1ccc(S(=O)(=O)NCCn2[se]c3ccccc3c2=O)cc1` . Observed fractional inhibitory concentration index (FICI): 0.25

Tested on Escherichia coli: `CCc1ccc(-n2[se]c3ccccc3c2=O)cc1` . Observed fractional inhibitory concentration index (FICI): 2
